experimentalProtocol: Solubility in aqueous 0.2% SDS
Assay type: physicochemical
runParameters: 37 °C, aqueous with cosolvent or surfactant or cyclodextrin, thermodynamic from solid
observedProperty: solubility at 24 h (µg/mL)
One number for each entry, in µg/mL.

Form field: reported solubility at 24 h of CCC(C)n1ncn(-c2ccc(N3CCN(c4ccc(OCC5COC(Cn6cncn6)(c6ccc(Cl)cc6Cl)O5)cc4)CC3)cc2)c1=O (stereo not shown) [itraconazole] 6.44
